Biological target: T1, mouse IL-2Rγ (mouse, UniProt P34902 23-263)
T1 construct: also called mo IL-2R
T1 sequence (looked up): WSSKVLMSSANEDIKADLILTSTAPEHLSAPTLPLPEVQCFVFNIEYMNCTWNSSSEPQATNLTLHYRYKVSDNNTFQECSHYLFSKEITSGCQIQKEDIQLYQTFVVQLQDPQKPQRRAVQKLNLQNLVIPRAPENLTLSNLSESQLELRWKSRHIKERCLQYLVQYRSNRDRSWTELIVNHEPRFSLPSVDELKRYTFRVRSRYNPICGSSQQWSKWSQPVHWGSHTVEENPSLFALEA
Assay: SPR off-rate ranking, periplasmic extract on immobilised protein
Each entry below carries its recorded koff.

binder	koff, s⁻¹
FJ1427_P035MP04E07 (VHH, VHH in periplasmic extract; also called clone nr) VHH: QVQLVESGGGLVQAGGSLRLSCAASGRTLSRYAMGWFRQAPGKERDFVAATSWGGDTYYADSVEGRFTFSRDNAKNAVYLQMNSLQPEDTAVYYCAAAPTSFATTAYSSSNSYAYWGQGTQVTVSS	0.215
FJ1427_P035MP04D03 (VHH, VHH in periplasmic extract; also called clone nr) VHH: EVQLVESGGGLVQAEGSLRLSCAASGRTLSRYAMGWFRQAPGKEREFVTANSWGGDTYYADSVQGRFTFSRDNAKNTVYLQMNSLQPEDTAVYYCAAAPTSFATTAYSSSNSYAYWGQGTQVTVSS	0.168
FJ1427_P035MP04D10 (VHH, VHH in periplasmic extract; also called clone nr; 364) VHH: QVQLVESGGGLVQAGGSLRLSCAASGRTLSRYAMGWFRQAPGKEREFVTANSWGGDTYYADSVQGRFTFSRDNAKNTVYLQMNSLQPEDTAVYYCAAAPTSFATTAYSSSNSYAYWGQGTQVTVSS	0.12
31-MP04E03 (VHH, VHH in periplasmic extract; also called FJ1427_P035MP04E03; clone nr) VHH: QVQLVESGGGLVQAGGSLRLSCTGYGGAFTGYALGWFRQAPGKEREFVARINWSGSFTYYASSVKGRFTISRDNAKNTMYLQMNNLKPEDTAVYYCAADNPSTLATDYDNWGQGTQVTVSS	0.283
